assay: Cytotoxicity against human HM02 cells; format: functional; details: Homo sapiens, HM02
Numbered stars: 1 amine (or outer) side, 2 acyl side, 3 side chain; on linkers, the order of the positions; unused ones are H or OH. Bridge positions count the residues as written; N and C are the ends. Square brackets hold non-standard residues; d marks the D form. Peptide text beside a SMILES is read from it. I, II: the chains in the order shown. Actinocin(1to9) = Cc1c2oc3c(C)ccc(C(=O)[*:2])c3nc-2c(C(=O)[*:1])c(N)c1=O; NMeV = CN[C@H](C(=O)O)C(C)C; Sar = CNCC(=O)O
Response field label takes True when GI50 is strictly below 2 nM and False in all other cases.

Examples from the recorded data:
Does Nc1cc2nc3ccccc3oc-2cc1=O have GI50 strictly under 2 nM?
False

Does Cc1c2oc3c(C)ccc(C(=O)N[C@@H]4C(=O)N[C@H](C(C)C)C(=O)N5CCC[C@H]5C(=O)N(C)CC(=O)N(C)[C@@H](C(C)C)C(=O)O[C@@H]4C)c3nc-2c(C(=O)N[C@@H]2C(=O)N[C@H](C(C)C)C(=O)N3CCC[C@H]3C(=O)N(C)CC(=O)N(C)[C@@H](C(C)C)C(=O)O[C@@H]2C)c(N)c1=O [DACTINOMYCIN] (I: T[dV]P[Sar][NMeV] / II: T[dV]P[Sar][NMeV]; ester I:1-I:C, II:1-II:C; linker I:N-II:N via Actinocin(1to9)) have GI50 strictly under 2 nM?
True

Does Cc1c2oc3c(C)ccc(C(=O)N[C@@H]4C(=O)N[C@H](C(C)C)C(=O)N5[C@H](C(=O)N(C)CC(=O)N(C)[C@@H](C(C)C)C(=O)O[C@@H]4C)[C@@H](O)C[C@@H]5C)c3nc-2c(C(=O)N[C@@H]2C(=O)N[C@H](C(C)C)C(=O)N3CCC[C@H]3C(=O)N(C)CC(=O)N(C)[C@@H](C)C(=O)O[C@@H]2CCl)c(N)c1=O have GI50 strictly under 2 nM?
True

Does Cc1c2oc3c(C)ccc(C(=O)N[C@@H]4C(=O)N[C@H](C(C)C)C(=O)N5[C@H](C(=O)N(C)CC(=O)N(C)[C@@H](C(C)C)C(=O)O[C@@H]4C)[C@@H](O)C[C@@H]5C)c3nc-2c(C(=O)N[C@@H]2C(=O)N[C@H](C(C)C)C(=O)N3CCC[C@H]3C(=O)N(C)CC(=O)N(C)[C@@H](C)C(=O)O[C@@H]2CO)c(N)c1=O have GI50 strictly under 2 nM?
False

Does Cc1c2oc3c(C)ccc(C(=O)N[C@@H]4C(=O)N[C@H](C(C)C)C(=O)N5[C@H](C(=O)N(C)CC(=O)N(C)[C@@H](C(C)C)C(=O)O[C@@H]4C)[C@@H](O)C[C@@H]5C)c3nc-2c(C(=O)N[C@@H]2C(=O)N[C@H](C(C)C)C(=O)N3CCC[C@H]3C(=O)N(C)CC(=O)N(C)[C@@H](C)C(=O)O[C@@H]2C)c(N)c1=O have GI50 strictly under 2 nM?
False

New cases:
Does Cc1c2oc3c(C)ccc(C(=O)N[C@@H]4C(=O)N[C@H](C(C)C)C(=O)N5[C@H](C(=O)N(C)CC(=O)N(C)[C@@H](C(C)C)C(=O)O[C@@H]4C)[C@@H](O)C[C@@H]5C)c3nc-2c2c(c1=O)OC[C@H]1OC(=O)[C@H](C)N(C)C(=O)CN(C)C(=O)[C@@H]3CCCN3C(=O)[C@@H](C(C)C)NC(=O)[C@H]1NC2=O have GI50 strictly under 2 nM?
False

Origin of measurements: ChEMBL document CHEMBL1158035
